tested_target: SIK2 (Homo sapiens)
Construct: purchased ThermoFisher Scientific PV4792
Sequence (Q9H0K1 whole entry): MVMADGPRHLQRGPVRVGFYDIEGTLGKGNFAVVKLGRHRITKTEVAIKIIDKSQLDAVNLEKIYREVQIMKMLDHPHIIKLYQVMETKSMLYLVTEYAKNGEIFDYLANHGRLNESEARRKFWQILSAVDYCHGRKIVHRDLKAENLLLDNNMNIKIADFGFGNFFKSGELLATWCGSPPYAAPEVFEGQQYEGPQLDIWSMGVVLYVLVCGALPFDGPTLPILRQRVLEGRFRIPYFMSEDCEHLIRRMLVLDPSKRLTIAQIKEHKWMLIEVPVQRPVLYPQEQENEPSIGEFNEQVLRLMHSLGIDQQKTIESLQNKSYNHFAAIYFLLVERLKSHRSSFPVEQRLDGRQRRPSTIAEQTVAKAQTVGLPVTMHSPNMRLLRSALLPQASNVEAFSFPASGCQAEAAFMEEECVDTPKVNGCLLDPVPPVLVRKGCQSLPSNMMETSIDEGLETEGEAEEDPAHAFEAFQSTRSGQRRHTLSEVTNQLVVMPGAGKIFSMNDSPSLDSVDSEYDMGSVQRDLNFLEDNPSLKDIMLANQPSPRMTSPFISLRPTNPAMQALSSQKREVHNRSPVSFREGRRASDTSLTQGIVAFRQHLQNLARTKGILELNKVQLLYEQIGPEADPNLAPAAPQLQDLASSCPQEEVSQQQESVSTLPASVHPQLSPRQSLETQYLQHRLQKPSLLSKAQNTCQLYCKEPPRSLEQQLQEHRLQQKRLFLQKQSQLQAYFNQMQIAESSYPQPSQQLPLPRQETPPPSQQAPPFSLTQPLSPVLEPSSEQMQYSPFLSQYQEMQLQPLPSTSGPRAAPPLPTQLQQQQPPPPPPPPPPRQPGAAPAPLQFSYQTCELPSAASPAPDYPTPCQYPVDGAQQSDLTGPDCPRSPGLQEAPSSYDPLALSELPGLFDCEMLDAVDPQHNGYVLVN
method_notes: biochemical
test_conditions: 33P radioactive SIK kinase assay, AMARA peptide, 10 μM ATP
Procedure: The principle of the ^33P radioactive kinase assay consists in measuring the incorporated ^33P into the substrate AMARA peptide when phosphorylated by SIK1, SIK2 or SIK3 using [^33P]-g-ATP, which correlates with kinase activity. […] After harvesting the kinase reactions, the filter plates are washed 6 times with phosphoric acid (75 mM). […] The top of the plates are sealed with TopSeal-A. Read-out is performed with a TopCount instrument (PerkinElmer Inc.).
Items are presented alongside their recorded IC50.

Previously resolved entries follow.
In [3]: df
Out[3]:
                         compound_structure         result
0  COc1cc(-n2cnc3cc(-c4ccc(N5CCCC5)nc4)ccc32)cc(OC)c1C(=O)NCC(F)(F)F  0.01 to 10 nM
1  COc1cc(-c2cnc3cc(-c4cnn(C)c4)ccn23)cc(OC)c1C(=O)N1CC(F)(F)C1  0.01 to 10 nM
2  COc1cc(-n2cnc3cc(-c4cnn(C)c4)ccc32)cc(OC)c1C(=O)N[C@@H]1C[C@@H]1C(F)F  0.01 to 10 nM
3  COc1cc(-n2cnc3cc(-c4cnc(C)[nH]4)ccc32)cc(OC)c1C(=O)NCC(F)(F)F   10 to 100 nM
4  COc1cc(-c2cnc3cc(-c4cnn(C)c4)ccn23)cc(OC)c1C(=O)NC(C)C   10 to 100 nM

Noted for COc1cc(-n2cnc3cc(-c4cnn(C)c4)ccc32)cc(OC)c1C(=O)NCC#N : its IC50 reads 0.01 to 10 nM

Sample COc1cc(-n2cnc3cc(-c4cnn(CCO)c4)ccc32)cc(OC)c1C(=O)NCC(F)(F)F ; IC50 observed: 0.01 to 10 nM

Looking up CCN1Cc2cc(-n3cnc4cc(-c5cnn(C)c5)ccc43)cc(NCCO)c2C1=O , I found its IC50 recorded as 100 to 500 nM

###

tested_target: SIK3 (Homo sapiens)
Construct: purchased SignalChem S12-11G-100
Sequence (Q9Y2K2 whole entry): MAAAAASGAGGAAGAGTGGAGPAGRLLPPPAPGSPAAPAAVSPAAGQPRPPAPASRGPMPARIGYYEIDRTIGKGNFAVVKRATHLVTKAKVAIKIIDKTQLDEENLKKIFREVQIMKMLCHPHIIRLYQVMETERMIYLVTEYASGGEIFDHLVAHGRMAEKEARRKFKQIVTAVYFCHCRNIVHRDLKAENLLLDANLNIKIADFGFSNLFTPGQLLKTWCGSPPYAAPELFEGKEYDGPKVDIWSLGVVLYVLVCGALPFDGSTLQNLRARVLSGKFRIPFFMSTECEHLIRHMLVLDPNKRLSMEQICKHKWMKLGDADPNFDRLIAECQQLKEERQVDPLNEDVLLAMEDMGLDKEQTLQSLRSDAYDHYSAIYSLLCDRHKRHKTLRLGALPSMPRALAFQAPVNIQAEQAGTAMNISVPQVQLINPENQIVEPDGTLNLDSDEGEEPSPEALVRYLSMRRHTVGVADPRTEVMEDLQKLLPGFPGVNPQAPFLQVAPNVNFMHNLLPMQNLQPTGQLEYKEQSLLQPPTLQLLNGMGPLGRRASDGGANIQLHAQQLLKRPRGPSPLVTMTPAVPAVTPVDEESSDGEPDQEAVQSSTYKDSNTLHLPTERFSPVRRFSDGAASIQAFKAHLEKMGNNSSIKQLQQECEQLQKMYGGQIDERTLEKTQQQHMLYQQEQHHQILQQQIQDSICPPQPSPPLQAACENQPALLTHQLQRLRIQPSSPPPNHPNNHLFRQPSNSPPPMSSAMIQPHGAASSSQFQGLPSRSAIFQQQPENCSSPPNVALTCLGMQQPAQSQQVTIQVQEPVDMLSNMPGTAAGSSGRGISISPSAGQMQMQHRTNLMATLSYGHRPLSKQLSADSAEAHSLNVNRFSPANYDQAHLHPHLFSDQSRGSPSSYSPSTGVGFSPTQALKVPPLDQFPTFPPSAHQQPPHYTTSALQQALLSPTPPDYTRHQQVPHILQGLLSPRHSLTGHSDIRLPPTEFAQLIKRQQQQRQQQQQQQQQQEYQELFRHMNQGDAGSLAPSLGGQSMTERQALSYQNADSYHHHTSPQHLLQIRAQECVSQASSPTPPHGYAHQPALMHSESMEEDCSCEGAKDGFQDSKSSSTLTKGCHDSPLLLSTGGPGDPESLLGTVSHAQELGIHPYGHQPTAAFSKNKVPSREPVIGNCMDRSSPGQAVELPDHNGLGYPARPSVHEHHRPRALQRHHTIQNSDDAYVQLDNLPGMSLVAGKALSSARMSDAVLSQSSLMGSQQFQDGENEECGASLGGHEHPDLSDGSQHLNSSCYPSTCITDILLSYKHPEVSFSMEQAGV
method_notes: biochemical
pIC50: −log10 of the molar value.
A collection of molecules and their measured pIC50

// solved cases for pIC50 follow
                                   molecule  experimental_endpoint         result
0  COc1cc(-n2cnc3cc(-c4cnn(C)c4)ccc32)cc(OC)c1C(=O)NC[C@H]1COCCO1 [compound 69]                  pIC50   6.30 to 7.00
1  COc1cc(-n2cnc3cc(-c4cnn(C)c4)ccc32)cc(OC)c1C(=O)Nc1cn(C)cn1 [compound 82]                  pIC50   6.30 to 7.00
2  CCNC(=O)c1c(OC)cc(-n2cnc3cc(-c4cnn(CCN5CCOCC5)c4)ccc32)cc1OC(F)F [compound 57]                  pIC50  8.00 to 11.00
3  COc1cc(-c2cnc3cc(-c4cnn(CC(=O)OCC5CCC5)c4)ccn23)cc(OC)c1C(=O)NCC(F)(F)F [Cpd 238]                  pIC50  8.00 to 11.00
4  COc1cc(-c2cnn3cc(-c4cnn(C)c4)ccc23)cc(OC)c1C(=O)NCC(F)(F)F [compound 99]                  pIC50  8.00 to 11.00
5  COc1cc(-n2cnc3cc(-c4cnn(C)c4)ccc32)cc(OC)c1C(=O)NC1CCCC[C@H]1N (stereo in doubt) [compound 139]                  pIC50  8.00 to 11.00
6  COc1cc(-n2cnc3cc(-c4cnn(C)c4)ccc32)cc(OC)c1C(=O)N[C@@H]1C[C@H]1C(F)F [compound 157]                  pIC50   7.00 to 8.00
7  COc1cc(-c2cnn3cc(-c4cnn(C)c4)cnc23)cc(OC)c1C(=O)NCC(F)F [compound 24]                  pIC50   7.00 to 8.00

Per the record, CCNC(=O)c1c(OC)cc(-c2cnc3cc(-c4cnn(C5CCNCC5)c4)ccn23)cc1OC(F)F [compound 149] has pIC50 of 8.00 to 11.00

Record summary for COc1cc(-c2cnc3cc(-c4cnn(C)c4)cnn23)cc(OC)c1C(=O)NCC(F)(F)F [compound 107] : reported pIC50 = 8.00 to 11.00

Reported pIC50 for COc1cc(-n2cnc3cc(-c4cnn(C)c4)ccc32)cc(OC)c1C(=O)N[C@@H]1C[C@@H]1F [compound 144] was 8.00 to 11.00

Kindly note the recorded pIC50 for COc1cc(-n2cnc3cc(-c4cccnc4)ccc32)cc(OC)c1C(=O)NCC(F)(F)F [compound 39] , which is 7.00 to 8.00

Form field pIC50, entry COc1cc(-c2cnc3cc(-c4cnn(C)c4)ccn23)cc(OC)c1C(=O)N[C@H]1CC[C@@H]1O [compound 170] : 8.00 to 11.00

The value of pIC50 measured for the molecule COc1cc(-n2cnc3cc(-c4noc(C)n4)ccc32)cc(OC)c1C(=O)NCC(F)(F)F [Cpd 126] turned out to be < 6.30

Summary for this molecule, COc1cc(-c2cnc3cc(-c4cnn(CCCC(=O)O)c4)ccn23)cc(OC)c1C(=O)NCC(F)(F)F [Cpd 255] : pIC50 is 8.00 to 11.00
